Answer each item with its documented IC50.
test system: Human immunodeficiency virus; assay: Inhibitory activity against HIV in Alex cells; type: functional, organism-based; details: Human immunodeficiency virus 1, Alex

Reported IC50 for NC(=O)c1cn(CC(O)CO)c2nc(N)nc(O)c12 (stereo unspecified) was > 200 µM

Reported IC50 for NC(=O)c1cn(COC(CO)CO)c2nc(N)nc(O)c12 was > 200 µM

Reported IC50 for NC(=O)c1cn(CC(O)CO)c2ncnc(N)c12 (stereo unspecified) was > 200 µM

Reported IC50 for NC(=O)c1cn(COCCO)c2nc(N)nc(O)c12 was > 200 µM

Reported IC50 for N#Cc1cn(CC(O)CO)c2ncnc(N)c12 (stereo unspecified) was 197 µM

Reported IC50 for CSc1c(C(N)=O)c2c(O)nc(N)nc2n1CC(O)CO (stereo unspecified) was > 200 µM

Reported IC50 for CSc1c(C#N)c2c(N)ncnc2n1CC(O)CO (stereo unspecified) was > 200 µM

Reported IC50 for CSc1c(C(N)=O)c2c(N)ncnc2n1COCCO was > 200 µM

Reported IC50 for NC(=O)c1cn(CC(O)CCO)c2nc(N)nc(O)c12 (stereo unspecified) was > 200 µM

Reported IC50 for CSc1c(C(N)=O)c2c(N)ncnc2n1COC(CO)CO was > 200 µM

Reported IC50 for CSc1c(C#N)c2c(O)nc(N)nc2n1CC(O)CCO (stereo unspecified) was > 200 µM

Reported IC50 for N#Cc1cn(COC(CO)CO)c2nc(N)nc(O)c12 was 3 µM

Reported IC50 for N#Cc1cn(CC(O)CCO)c2nc(N)nc(O)c12 (stereo unspecified) was > 200 µM

Reported IC50 for CSc1c(C#N)c2c(O)nc(N)nc2n1CC(O)CO (stereo unspecified) was > 200 µM

Reported IC50 for CSc1c(C#N)c2c(N)ncnc2n1CC(O)CCO (stereo unspecified) was 100 µM

Reported IC50 for N#Cc1cn(COCCO)c2nc(N)nc(O)c12 was > 200 µM

Reported IC50 for N#Cc1cn(CC(O)CO)c2nc(N)nc(O)c12 (stereo unspecified) was > 200 µM

Reported IC50 for CSc1c(C(N)=O)c2c(O)nc(N)nc2n1CC(O)CCO (stereo unspecified) was > 200 µM

Reported IC50 for CSc1c(C#N)c2c(O)nc(N)nc2n1COCCO was > 200 µM

Reported IC50 for CSc1c(C#N)c2c(N)ncnc2n1COC(CO)CO was 20 µM

Reported IC50 for CSc1c(C(N)=O)c2c(O)nc(N)nc2n1COC(CO)CO was > 200 µM

Reported IC50 for Cc1cn([C@H]2C[C@H](N=[N+]=[N-])[C@@H](CO)O2)c(=O)[nH]c1=O [ZIDOVUDINE] was 0.01 µM

Reported IC50 for CSc1c(C#N)c2c(N)ncnc2n1COCCO was > 200 µM

Reported IC50 for N#Cc1cn(CC(O)CCO)c2ncnc(N)c12 (stereo unspecified) was > 200 µM

Reported IC50 for NC(=O)c1cn(CC(O)CCO)c2ncnc(N)c12 (stereo unspecified) was > 200 µM

Reported IC50 for NC(=O)c1cn(COC(CO)CO)c2ncnc(N)c12 was > 200 µM

----------
test: Therapeutic ratio at 400 uM toxicity to Alex cells.; assay type: cell-based; conditions: human
Readout Kind: selectivity ratio at 400 µM

Reported selectivity ratio at 400 µM for CSc1c(C#N)c2c(N)ncnc2n1COC(CO)CO was 40

Every entry's value here was drawn from ChEMBL document CHEMBL1124871.
